src = patent US7109338B2

test system: HRV36 (342H); assay: Anti-rhinovirus spectrum (MTT), HRV36; assay type: cell-based, human rhinovirus; design: unit not given here; conditions: HRV36
MEASURED_QUANTITY: Anti-Rhinovirus activity, HRV36
Please state the value as a number alone, without comment.

- COMPOUND: "CCn1c2c(c(=O)c3cc(CC(C)C)ccc31)Cc1cc(OC)ccc1-2 [Compound B15]"
  Anti-Rhinovirus activity, HRV36: 0.32

Looking up CCn1c2c(c(=O)c3cc(C(C)C)ccc31)Cc1cc(OC)ccc1-2 [Compound B10] , I found its Anti-Rhinovirus activity, HRV36 recorded as 0.17

CCn1c2c(c(=O)c3cc(C(C)C)ccc31)Cc1cc(OC)c(OC)cc1-2 [Compound B22] yielded Anti-Rhinovirus activity, HRV36 of 0.25

Please fill in: Anti-Rhinovirus activity, HRV36 reported for CCn1c2c(c(=O)c3cc(CC(C)C)ccc31)Cc1cc(OC)ccc1-2 [Compound B12] = 0.21

The measured Anti-Rhinovirus activity, HRV36 associated with CCc1ccc2c(c1)Cc1c-2n(CC)c2ccc(C(C)C)cc2c1=O [Compound B9] reads 0.16

The reported Anti-Rhinovirus activity, HRV36 of the compound CCn1c2c(c(=O)c3cc(C(C)C)ccc31)Cc1ccccc1-2.Cl [Compound B3] was 0.30

Documented Anti-Rhinovirus activity, HRV36 of CCn1c2c(c(=O)c3cc(C(C)C)ccc31)Cc1cc(OC)c(C)cc1-2 [Compound B20] : 0.20

Entry CCn1c2c(c(=O)c3c(C(C)C)c(OC)ccc31)Cc1ccccc1-2 [Compound B7] — recorded Anti-Rhinovirus activity, HRV36 = 0.16

###

tested on: HeLa cells; assay: Cytotoxicity (MTT, without virus), HeLa; conditions: HeLa, no virus, incubated for 4 days
Readings of Cytotoxicity CC50 HeLa for the listed molecules

Record excerpt, results attached:
- MOLECULE: "Cc1cc2c(c(C)c1OCC(C)C)c(=O)cc(-c1ccccc1)n2C"
  Cytotoxicity CC50 HeLa: ">4 µg/mL"
- MOLECULE: "CCc1ccc2c(c1)Cc1c-2n(C)c2ccc(C(C)C)cc2c1=O"
  Cytotoxicity CC50 HeLa: ">1 µg/mL"
- MOLECULE: "CCn1c2c(c(=O)c3cc(CC(C)C)ccc31)Cc1cc(OC)ccc1-2 [Compound B12]"
  Cytotoxicity CC50 HeLa: ">2.5 µg/mL"
- MOLECULE: "CCn1c(-c2ccccc2)c(C)c(=O)c2cc(OCC(C)C)c(C)cc21"
  Cytotoxicity CC50 HeLa: ">4 µg/mL"

Moving on to the next molecule.
Consider "CC(C)c1ccc2c(c1)c(=O)cc(-c1ccco1)n2C" . Its measured Cytotoxicity CC50 HeLa is >20 µg/mL

###

tested on: HeLa (Ohio strain)cells; test: Cytotoxicity (MTT, without virus), HeLa(Ohio); settings: HeLa(Ohio), no virus, incubated for 4 days
MEASURED_QUANTITY: Cytotoxicity CC50 HeLa(Ohio)

Examples from the recorded data:
- MOLECULE: "CCn1c(-c2ccccc2)c(C)c(=O)c2cc(NCC(C)C)ccc21.O [Compound A159]"
  MEASURED_RESULT: ">5 µg/mL"
- MOLECULE: "CCn1c(-c2cccc(F)c2)c(C)c(=O)c2cc(C(C)C)ccc21 [Compound A60]"
  MEASURED_RESULT: "5.7 µg/mL"
- MOLECULE: "COc1c(OCC(C)C)ccc2c1c(=O)c(C)c(-c1ccccc1)n2C [Compound A196]"
  MEASURED_RESULT: ">10 µg/mL"
- MOLECULE: "CC(C)c1ccc2c(c1)c(=O)cc(-c1ccn(C)c1)n2C [Compound A306]"
  MEASURED_RESULT: "25 µg/mL"

Form field Cytotoxicity CC50 HeLa(Ohio), entry COc1ccc(-c2c(C)c(=O)c3cc(C(C)C)ccc3n2C)cc1 [Compound A81] : 5.8 µg/mL

Cytotoxicity CC50 HeLa(Ohio) for CCn1c2c(c(=O)c3cc(CC(C)C)ccc31)Cc1cc(OC)ccc1-2 [Compound B12] is >2.5 µg/mL

Briefly, Cytotoxicity CC50 HeLa(Ohio) measured for CCc1ccc2c(c1)Cc1c-2n(C)c2ccc(C(C)C)cc2c1=O [Compound B8] : >1 µg/mL

# molecule CCn1c2c(c(=O)c3c(C(C)C)c(OC)ccc31)Cc1ccccc1-2 [Compound B7] ; its Cytotoxicity CC50 HeLa(Ohio) = >2.5 µg/mL

The reported Cytotoxicity CC50 HeLa(Ohio) of the molecule Cc1cc2c(c(C)c1OCC(C)C)c(=O)c(C)c(-c1ccccc1)n2C [Compound A286] was >5 µg/mL

For record CCn1c(-c2ccccc2)c(C)c(=O)c2cc(N3CCOCC3)ccc21 [Compound A169] the listed Cytotoxicity CC50 HeLa(Ohio) is >50 µg/mL

GET /value?item= CCn1c(-c2cccc(OC)c2)c(C)c(=O)c2cc(C(C)C)ccc21 [Compound A78] &field=Cytotoxicity CC50 HeLa(Ohio) returns >8 µg/mL

Given item CCn1c(-c2ccccn2)cc(=O)c2cc(C(C)C)ccc21 [Compound A296] , the value recorded as its Cytotoxicity CC50 HeLa(Ohio) is 68 µg/mL

Sure, the documented Cytotoxicity CC50 HeLa(Ohio) for CCn1c2c(c(=O)c3cc(C(C)C)ccc31)Cc1cc(OC)c(C)cc1-2 [Compound B20] is >2.5 µg/mL

Per the records, this molecule ( Cc1cc(-c2cc(=O)c3cc(C(C)C)ccc3n2C)ccc1OC(C)C [Compound A100] ) has Cytotoxicity CC50 HeLa(Ohio) equal to >5 µg/mL
